Here the recorded IC50 is given for each entry.
- Target Or System: KRAS G13C (Homo sapiens, UniProt P01116+P62937, G13C)
- Sequence (P01116 1-169 isoform P01116-2 G13C limits assumed, one chain of several): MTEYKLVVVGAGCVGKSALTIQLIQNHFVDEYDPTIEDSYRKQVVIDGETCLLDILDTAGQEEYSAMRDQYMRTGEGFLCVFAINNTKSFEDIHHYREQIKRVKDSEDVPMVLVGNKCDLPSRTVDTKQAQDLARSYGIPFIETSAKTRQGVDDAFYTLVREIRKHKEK
- Method Notes: Ras-Raf disruption/FRET/MOA assay, KRAS G13C
- Assay type: biochemical
- Run Conditions: disruption of BRAF RBD binding, with Cyclophilin A; read-out: KRAS G13C FRET IC50

>  <Chemical Structure>
CCn1c(-c2cccnc2[C@H](C)OC)c2c3cc(ccc31)-c1cc(O)cc(c1)C[C@H](NC(=O)[C@H](C(C)C)N1CO[C@@]3(CCN(C(=O)[C@H]4CN4)C3)C1=O)C(=O)N1CCC[C@H](N1)C(=O)OCC(C)(C)C2

>  <IC50>
10 to 100 nM

$$$$

input: Param item = CCn1c(-c2cccnc2[C@H](C)OC)c2c3cc(ccc31)-c1cc(O)cc(c1)C[C@H](NC(=O)[C@H](C(C)C)N1CC[C@]3(CCCN(C(=O)[C@H]4CN4)C3)C1=O)C(=O)N1CCC[C@H](N1)C(=O)OCC(C)(C)C2 ; retrieve measured IC50.
output: 10 to 100 nM

input: IC50 lookup needed for CCn1c(-c2cccnc2[C@H](C)OC)c2c3cc(ccc31)-c1cc(O)cc(c1)C[C@H](NC(=O)[C@H](C(C)C)N1CO[C@]3(CCN(C(=O)[C@H]4CN4)C3)C1=O)C(=O)N1CCC[C@H](N1)C(=O)OCC(C)(C)C2 , thanks.
output: < 10 nM

input: So what's the measured IC50 for this one? CCn1c(-c2cccnc2[C@H](C)OC)c2c3cc(ccc31)-c1csc(n1)C[C@H](NC(=O)[C@H](C(C)C)N(C)C(=O)N1C3CCC1CN(C(=O)[C@@H]1CN1)C3)C(=O)N1CCC[C@H](N1)C(=O)OCC(C)(C)C2
output: 1000 to 10000 nM

input: Which IC50 value is on record for CCn1c(-c2cccnc2[C@H](C)OC)c2c3cc(ccc31)-c1cc(O)cc(c1)C[C@H](NC(=O)[C@H](C(C)C)N1CC[C@]3(CCN(C[C@@H]4CN4)C3)C1=O)C(=O)N1CCC[C@H](N1)C(=O)OCC(C)(C)C2 ?
output: 10 to 100 nM

---

- Target Or System: NRAS G12C (Homo sapiens, UniProt P01111+P62937, G12C)
- Construct: His6
- Sequence (P01111 whole entry G12C): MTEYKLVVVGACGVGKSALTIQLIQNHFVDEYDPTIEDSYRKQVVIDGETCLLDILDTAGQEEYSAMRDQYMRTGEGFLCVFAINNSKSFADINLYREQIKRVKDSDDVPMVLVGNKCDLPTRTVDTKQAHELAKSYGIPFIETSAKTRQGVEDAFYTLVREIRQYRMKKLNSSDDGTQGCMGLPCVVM
- Sequence (P62937 whole entry): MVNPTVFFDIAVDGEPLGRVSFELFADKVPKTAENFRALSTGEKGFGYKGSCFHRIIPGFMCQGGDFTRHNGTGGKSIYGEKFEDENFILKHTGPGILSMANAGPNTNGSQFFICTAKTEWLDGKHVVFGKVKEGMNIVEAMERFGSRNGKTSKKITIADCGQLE
- Method Notes: Ras-Raf disruption/FRET/MOA assay, NRAS G12C
- Type: biochemical
- Run Conditions: NRAS G12C FRET data IC50, NRAS G12C
pIC50: −log10 of the molar value.
pIC50 overview

Example compounds with recorded pIC50:
>  <Compound>
CCn1c(-c2cccnc2[C@H](C)OC)c2c3cc(ccc31)-c1cc(O)cc(c1)C[C@H](NC(=O)C(C(C)C)N(C)C(=O)[C@@]1(C)CCCN1C(=O)[C@H]1CN1)C(=O)N1CCC[C@H](N1)C(=O)OCC(C)(C)C2 (some centres unmarked)

>  <Observed Measurement>
6.00 to 7.00

$$$$
>  <Compound>
CCn1c(-c2cnccc2COC)c2c3cc(ccc31)-c1cc(O)cc(c1)C[C@H](NC(=O)[C@H](C(C)C)N(C)C(=O)CN(C)C(=O)[C@H]1CN1Cc1ccccc1)C(=O)N1CCC[C@H](N1)C(=O)OCC(C)(C)C2 (some centres unmarked)

>  <Observed Measurement>
7.00 to 8.00

$$$$
>  <Compound>
CCn1c(-c2cnccc2COC)c2c3cc(ccc31)-c1cc(O)cc(c1)C[C@H](NC(=O)[C@H](C(C)C)N(C)C(=O)CN(C)C(=O)[C@@H]1CN1)C(=O)N1CCC[C@H](N1)C(=O)OCC(C)(C)C2

>  <Observed Measurement>
7.00 to 8.00

$$$$

input: Request: pIC50, test system NRAS G12C (Homo sapiens, UniProt P01111+P62937, G12C), entry CCn1c(-c2cccnc2[C@H](C)OC)c2c3cc(ccc31)-c1cc(O)cc(c1)C[C@H](NC(=O)[C@H](C(C)C)N(C)C(=O)CN(C)C(=O)[C@@H]1CN1)C(=O)N1CCC[C@H](N1)C(=O)OCC(C)(C)C2
output: > 8.00

input: Any idea what pIC50 came out for CCC(C)N(C)C(=O)c1cncc(-c2c3c4cc(ccc4n2CC)-c2cc(O)cc(c2)C[C@H](NC(=O)[C@H](C(C)C)N(C)C(=O)CN(C)C(=O)[C@H]2CN2)C(=O)N2CCC[C@H](N2)C(=O)OCC(C)(C)C3)c1 (some centres unmarked) on NRAS G12C (Homo sapiens, UniProt P01111+P62937, G12C)?
output: 7.00 to 8.00

---

- Target Or System: KRAS G13C (Homo sapiens, UniProt P01116+P62937, G13C)
- Method Notes: Ras-Raf disruption/FRET/MOA assay, KRAS G13C
- Format: biochemical
- Run Conditions: disruption of BRAF RBD binding, with Cyclophilin A; read-out: KRAS G13C FRET IC50
pIC50: −log10 of the molar value.
Assay Readout: pIC50

Answered examples (6):
>  <Molecule>
CCn1c(-c2cnccc2COC)c2c3cc(ccc31)-c1cc(O)cc(c1)C[C@H](NC(=O)[C@H](C(C)C)N(C)C(=O)CN(C)C(=O)[C@@H]1CN1C(=O)OC)C(=O)N1CCC[C@H](N1)C(=O)OCC(C)(C)C2

>  <Target Or System>
KRAS G13C (Homo sapiens, UniProt P01116+P62937, G13C)

>  <pIC50>
7.00 to 8.00

$$$$
>  <Molecule>
CCn1c(-c2cccnc2[C@H](C)OC)c2c3cc(ccc31)-c1cc(O)cc(c1)C[C@H](NC(=O)[C@H](C(C)C)N1CCCC3(CN(C(=O)[C@@H]4CN4)C3)C1=O)C(=O)N1CCC[C@H](N1)C(=O)OCC(C)(C)C2

>  <Target Or System>
KRAS G13C (Homo sapiens, UniProt P01116+P62937, G13C)

>  <pIC50>
7.00 to 8.00

$$$$
>  <Molecule>
CCn1c(-c2cccnc2[C@H](C)OC)c2c3cc(ccc31)-c1cc(cc(C(F)F)c1)C[C@H](NC(=O)[C@H](C1CCCC1)N1CC[C@]3(CCN(C(=O)[C@@H]4N[C@@H]4C4CC4)C3)C1=O)C(=O)N1CCC[C@H](N1)C(=O)OCC(C)(C)C2

>  <Target Or System>
KRAS G13C (Homo sapiens, UniProt P01116+P62937, G13C)

>  <pIC50>
6.00 to 7.00

$$$$
>  <Molecule>
CCn1c(-c2cnccc2COC)c2c3cc(ccc31)-c1cc(O)cc(c1)C[C@H](NC(=O)[C@H](C(C)C)N(C)C(=O)CN(C)C(=O)[C@H]1[C@@H](C)N1[S@+]([O-])C(C)(C)C)C(=O)N1CCC[C@H](N1)C(=O)OCC(C)(C)C2 (some centres unmarked)

>  <Target Or System>
KRAS G13C (Homo sapiens, UniProt P01116+P62937, G13C)

>  <pIC50>
7.00 to 8.00

$$$$
>  <Molecule>
CCn1c(-c2cccnc2[C@H](C)OC)c2c3cc(ccc31)-c1csc(n1)C[C@H](NC(=O)[C@H](C1CCCC1)N1CC[C@]3(CCN(C(=O)[C@H]4CN4)C3)C1=O)C(=O)N1CCC[C@H](N1)C(=O)OCC(C)(C)C2

>  <Target Or System>
KRAS G13C (Homo sapiens, UniProt P01116+P62937, G13C)

>  <pIC50>
6.00 to 7.00

$$$$
>  <Molecule>
CCn1c(-c2cccnc2[C@H](C)OC)c2c3cc(ccc31)-c1csc(n1)C[C@H](NC(=O)[C@H](C(C)C)N(C)C(=O)N1CCC[C@@H](N(C)C(=O)[C@H]3CN3)C1)C(=O)N1CCC[C@H](N1)C(=O)OCC(C)(C)C2 (atropisomer, axis not shown)

>  <Target Or System>
KRAS G13C (Homo sapiens, UniProt P01116+P62937, G13C)

>  <pIC50>
6.00 to 7.00

$$$$

input: So what's the measured pIC50 for this one? CCn1c(-c2cccnc2[C@H](C)OC)c2c3cc(ccc31)-c1cc(O)cc(c1)C[C@H](NC(=O)[C@H](C(C)C)N1CC[C@@]3(CCCN(C(=O)[C@@H]4CN4)C3)C1=O)C(=O)N1CCC[C@H](N1)C(=O)OCC(C)(C)C2
output: 7.00 to 8.00

input: Field request: pIC50 | item: CCn1c(-c2cccnc2[C@H](C)OC)c2c3cc(ccc31)-c1cc(O)cc(c1)C[C@H](NC(=O)[C@H](C(C)C)N1CCC3(CCN(C(=O)[C@@H]4CN4)CC3)C1=O)C(=O)N1CCC[C@H](N1)C(=O)OCC(C)(C)C2
output: > 8.00
